- ASSAY_OVERVIEW: Metabolic stability in human liver microsomes assessed as intrinsic clearance at 100 uM measured upto 60 mins in the presence of NADPH by LC-MS/MS analysis
- Format: ADME, Microsome
- ASSAY_SETUP: 1 h
EXPERIMENTAL_READOUT: CLint (µL/min/mg)
Express your answer in µL/min/mg, writing the number without its unit.

Note down CLint recorded for `Cc1cc(Nc2nc(NCc3ccc(F)cc3F)nc3c2cnn3C2CCOCC2)n[nH]1`
46.8

* * *

- ASSAY_OVERVIEW: Oral bioavailability in Sprague-Dawley rat at 10 mg/kg by LC-MS/MS analysis
- Type: ADME, organism-based
- ASSAY_SETUP: in vivo
EXPERIMENTAL_READOUT: bioavailability
Just the number plus its unit, please.

Note down bioavailability recorded for `Cc1cc(Nc2nc(NCc3ccc(F)cc3F)nc3c2cnn3C2CCOCC2)n[nH]1`
8.03%
